- testedTarget: T1, human DLL3 (ACRO, DLL3-H52H4) (human, UniProt Q9NYJ7 27-492)
- T1 construct: Bought
- T1 sequence: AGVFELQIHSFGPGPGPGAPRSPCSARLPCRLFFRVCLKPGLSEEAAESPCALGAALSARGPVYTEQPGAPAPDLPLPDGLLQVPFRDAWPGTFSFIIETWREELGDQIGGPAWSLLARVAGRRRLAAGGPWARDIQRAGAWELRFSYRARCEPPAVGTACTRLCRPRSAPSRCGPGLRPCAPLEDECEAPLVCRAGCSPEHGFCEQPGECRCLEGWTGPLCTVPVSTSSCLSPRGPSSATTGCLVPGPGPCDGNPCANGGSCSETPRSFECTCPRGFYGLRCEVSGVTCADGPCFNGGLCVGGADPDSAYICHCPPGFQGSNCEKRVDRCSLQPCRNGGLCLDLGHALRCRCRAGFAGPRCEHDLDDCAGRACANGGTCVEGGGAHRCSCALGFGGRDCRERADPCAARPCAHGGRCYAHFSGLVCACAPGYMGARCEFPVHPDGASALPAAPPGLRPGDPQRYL
- methodSummary: SPR Biacore 8K, Ab captured on Protein A
resultType: Kd

binder	testResult
hu30L1H11 (antibody, human IgG1, kappa, V domains shown) VH: EVRLVQFGAVVKKPGASVKVSCKASGYTFTDYYMNWVRQAPGQSLEWMGIINPYTGDTSYNQKFRGRVTLTVDKSSSTAYMELSSLTSEDTAVYYCARYHYGPHLEGYFDVWGQGTTVTVSS VL: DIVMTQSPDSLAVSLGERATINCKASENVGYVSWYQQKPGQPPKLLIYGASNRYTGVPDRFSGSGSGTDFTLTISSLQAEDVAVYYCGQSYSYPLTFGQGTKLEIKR	2.83 nM
hu30L5H11 (antibody, human IgG1, kappa, V domains shown) VH: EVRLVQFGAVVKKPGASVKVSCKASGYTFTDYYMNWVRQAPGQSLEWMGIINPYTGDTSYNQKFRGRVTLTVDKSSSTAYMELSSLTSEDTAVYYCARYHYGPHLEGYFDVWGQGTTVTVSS VL: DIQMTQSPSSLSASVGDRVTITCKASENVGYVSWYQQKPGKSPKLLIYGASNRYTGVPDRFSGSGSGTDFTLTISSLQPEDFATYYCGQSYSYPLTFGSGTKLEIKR	3.06 nM
hu98L3H2 (antibody, human IgG1, kappa, V domains shown) VH: EVQLVESGGGLVQPGGSLRLSCAASGFTFSDYGIHWVRQAPGKGLEWVAYISSGGYTIYYADTVKGRFTISRDNAKNSLYLQMNSLRAEDTAVYYCARGDYEDIFYTMDYWGQGTTVTVSS VL: DIQMTQSPSSLSASVGDRVTITCRASRDITKFLNWYQQKPGGAVKLLIYYTSRLHSGVPSRFSGSGSGTDYTLTISSLQPEDFATYYCQQGNTLPWTFGGGTKVEIKR	0.464 nM
